Where do the numbers come from? From patent US9315545B2.

ASSAY_DETAILS: physchem
Type: physicochemical
MEASUREMENT_CONTEXT: pH 5.5, Solubility (mg/mL) at Ambient Temperature, 10% Tween 80 pH 5.5-6.0
MEASURED_PROPERTY: solubility

Please review the following examples before continuing.
{"MOLECULE": "CCCCCCCCCCCCCCCCNC(=O)CN(CC(N)=O)C(=O)CCCCCNC(=O)C(Cc1c[nH]c2ccccc12)NC(=O)C(CCCNC(=N)N)NC(=O)C(CSSC)NC(=O)C(CCCNC(=N)N)NC(=O)CC1CCCN1C(=O)C(NC(=O)C(Cc1c[nH]cn1)NC(=O)C(NC(=O)CNCC(=O)O)C(C)O)C(c1ccccc1)c1ccccc1 (stereo not drawn)", "solubility": "25 to 30 mg/mL"}
{"MOLECULE": "CCCCCCCCCCCCCCCCNC(=O)CN(CC(N)=O)C(=O)CCCCCNC(=O)[C@H](Cc1c[nH]c2ccccc12)NC(=O)[C@H](CCCNC(=N)N)NC(=O)[C@H](CSSC)NC(=O)[C@H](CCCNC(=N)N)NC(=O)[C@@H]1CCCN(C(=O)[C@@H](NC(=O)[C@H](Cc2c[nH]cn2)NC(=O)[C@@H](NC(=O)CNCC(=O)O)[C@@H](C)O)C(c2ccccc2)c2ccccc2)C1", "solubility": "50 to 100 mg/mL"}
{"MOLECULE": "CCCCCCCCCCCCCCCCNC(=O)CN(CC(N)=O)C(=O)CCCCCNC(=O)[C@H](Cc1c[nH]c2ccccc12)NC(=O)[C@H](CCCNC(=N)N)NC(=O)[C@H](CSSC)NC(=O)[C@H](CCCNC(=N)N)NC(=O)CCNC(=O)[C@@H](NC(=O)[C@H](Cc1c[nH]cn1)NC(=O)[C@@H](NC(=O)CNCC(=O)O)[C@@H](C)O)C(c1ccccc1)c1ccccc1", "solubility": "< 10 mg/mL"}
{"MOLECULE": "CCCCCCCCCCCCCCCCNC(=O)CN(CC(N)=O)C(=O)CCCCCNC(=O)[C@H](Cc1c[nH]c2ccccc12)NC(=O)[C@H](CCCNC(=N)N)NC(=O)[C@H](CSSC)NC(=O)[C@H](CCCNC(=N)N)NC(=O)C1CCN(C(=O)[C@@H](NC(=O)[C@H](Cc2c[nH]cn2)NC(=O)[C@@H](NC(=O)CNCC(=O)O)[C@@H](C)O)C(c2ccccc2)c2ccccc2)CC1", "solubility": "50 to 100 mg/mL"}
{"MOLECULE": "CCCCCCCCCCCCCCCCNC(=O)CN(CC(N)=O)C(=O)CCCCCNC(=O)[C@H](Cc1c[nH]c2ccccc12)NC(=O)[C@H](CCCNC(=N)N)NC(=O)[C@H](CSSC)NC(=O)[C@H](CCCNC(=N)N)NC(=O)C[C@@H]1CCCN1C(=O)[C@@H](NC(=O)[C@H](Cc1c[nH]cn1)NC(=O)[C@@H](NC(=O)CN(CC(=O)O)C(=O)CNC(C)=O)[C@@H](C)O)C(c1ccccc1)c1ccccc1", "solubility": "25 to 35 mg/mL"}

Value of solubility reported for the molecule CCCCCCCCCCCCCCCCNC(=O)CN(CC(N)=O)C(=O)CCCCCNC(=O)C(Cc1c[nH]c2ccccc12)NC(=O)C(CCCNC(=N)N)NC(=O)C(CSSC)NC(=O)C(CCCNC(=N)N)NC(=O)C1CCCN(C(=O)C(NC(=O)C(Cc2c[nH]cn2)NC(=O)C(NC(=O)CNCC(=O)O)C(C)O)C(c2ccccc2)c2ccccc2)C1 (stereo not drawn) is > 100 mg/mL
